# Test system: Abp1 PPIs
# procedure text: DHFR-PCA of Abp1 SH3-swapped baits (Fig. 2B-D, S2C, S2F)
# Type: cell-based, Saccharomyces cerevisiae
# experimental setup: number of PPIs; Abp1 SH3-swapped with the listed SH3; DHFR-PCA; Fig2D,S2F
measured property: SH3-dependent PPIs gained by Abp1
Form rule: numeric answer, no unit written next to it.

| molecule | measured property | reported result |
| --- | --- | --- |
| PIN3 (protein, UniProt Q06449 2-215, looked up) [PSI+] inducibility protein 3: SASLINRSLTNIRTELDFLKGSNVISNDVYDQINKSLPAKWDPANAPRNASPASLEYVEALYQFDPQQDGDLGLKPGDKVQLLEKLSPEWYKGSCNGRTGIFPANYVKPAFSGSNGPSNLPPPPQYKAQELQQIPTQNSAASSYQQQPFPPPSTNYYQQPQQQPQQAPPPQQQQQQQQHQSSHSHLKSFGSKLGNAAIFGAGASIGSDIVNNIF | SH3-dependent PPIs gained by Abp1 | 0 |
| PEX13 (protein, UniProt P80667 1-386, looked up) Peroxisomal membrane protein …: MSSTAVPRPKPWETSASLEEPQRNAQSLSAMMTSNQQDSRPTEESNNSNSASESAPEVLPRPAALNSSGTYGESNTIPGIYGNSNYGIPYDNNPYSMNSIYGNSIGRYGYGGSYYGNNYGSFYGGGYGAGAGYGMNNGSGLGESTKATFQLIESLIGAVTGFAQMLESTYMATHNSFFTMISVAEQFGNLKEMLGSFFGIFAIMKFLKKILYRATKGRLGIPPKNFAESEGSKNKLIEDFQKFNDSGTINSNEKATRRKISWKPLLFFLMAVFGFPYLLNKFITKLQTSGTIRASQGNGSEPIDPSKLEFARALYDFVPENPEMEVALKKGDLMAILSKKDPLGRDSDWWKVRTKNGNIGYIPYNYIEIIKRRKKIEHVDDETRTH | SH3-dependent PPIs gained by Abp1 | 1 |

We next turn to a different molecule, shown below.
Quote SH3-dependent PPIs gained by Abp1 reported for LSB1 (protein, UniProt P53281 2-241, looked up) LAS seventeen-binding protein …: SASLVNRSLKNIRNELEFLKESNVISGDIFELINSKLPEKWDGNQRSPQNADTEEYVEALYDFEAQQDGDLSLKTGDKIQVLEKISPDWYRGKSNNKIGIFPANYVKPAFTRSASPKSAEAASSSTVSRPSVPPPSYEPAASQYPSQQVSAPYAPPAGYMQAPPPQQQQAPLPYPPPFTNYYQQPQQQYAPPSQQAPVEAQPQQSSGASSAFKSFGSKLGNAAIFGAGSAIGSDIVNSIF please.
0
